target: active p38 alpha enzyme (Upstate Biotechnology) (Homo sapiens); construct: purchased Upstate Biotechnology; test: p38α biochemical assay (ATP turnover, luminescent detection, Cambrex PKlight); details: p38α biochemical assay, Table 1 Biological Activity
recorded metric: IC50

For Cc1ccc(F)cc1C(=O)NCc1nc(-c2ccc(F)cc2)c(-c2nc(C(=O)NC(C)C)cs2)o1 the molecule record lists IC50 as ≤ 1000 nM

Recorded IC50 (molecule O=C(NCc1cccnc1)c1csc(-c2c(-c3ccc(F)cc3)n[nH]c2C2CCNCC2)n1 ): ≤ 1000 nM

Looking up CC(C)NC(=O)c1csc(-c2c(-c3ccc(F)cc3)noc2CNC(=O)c2cc(Cl)ccn2)n1 , I see its IC50 listed as > 1000 nM

Quick note, IC50 for CC(C)NC(=O)c1csc(-c2oc(CNC(=O)c3ccccc3O)nc2-c2ccc(F)cc2)n1 landed at > 1000 nM

response.value for CCOc1ccccc1C(=O)N1CCN(Cc2nc(-c3ccc(F)cc3)c(-c3nc(C(=O)NC(C)C)cs3)o2)CC1 (field: IC50) = > 1000 nM

Cc1nc(Br)sc1C(=O)N1CCN(Cc2nc(-c3ccc(F)cc3)c(-c3nc(C(=O)NC(C)C)cs3)o2)CC1 yielded IC50 of > 1000 nM

Entry CC(C)NC(=O)c1csc(-c2oc(CNC(=O)c3ccc4cccc(O)c4n3)nc2-c2ccc(F)cc2)n1 ; IC50 = ≤ 1000 nM

---

target: active p38 alpha enzyme (Upstate Biotechnology) (Homo sapiens, UniProt Q16539); construct: purchased Upstate Biotechnology; test: p38α biochemical assay (ATP turnover, luminescent detection, Cambrex PKlight); conditions: p38α kinase; Table 1 Biological Activity
Sequence (Q16539 whole entry): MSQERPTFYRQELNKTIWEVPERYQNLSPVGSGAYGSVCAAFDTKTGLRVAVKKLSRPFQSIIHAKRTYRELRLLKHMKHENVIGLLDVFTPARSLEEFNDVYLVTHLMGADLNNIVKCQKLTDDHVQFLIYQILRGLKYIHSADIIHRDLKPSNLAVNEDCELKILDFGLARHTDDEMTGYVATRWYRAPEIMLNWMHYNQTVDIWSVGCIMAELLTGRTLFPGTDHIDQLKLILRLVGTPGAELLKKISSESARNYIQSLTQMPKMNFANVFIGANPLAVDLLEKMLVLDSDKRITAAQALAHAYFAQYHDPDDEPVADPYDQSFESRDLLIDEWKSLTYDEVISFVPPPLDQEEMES
# IC50 values compiled below

Some molecules with known IC50 results, for comparison:
molecule | result
Cc1ccc(C(=O)N2CCC(c3[nH]nc(-c4ccc(F)cc4)c3-c3nc(C(=O)NC(C)C)cs3)CC2)cc1 [Example 837] | > 1000 nM
C#CCNC(=O)c1csc(-c2sc(C)nc2-c2ccc(F)cc2)n1 [Example 1707] | ≤ 1000 nM
NCCNC(=O)c1csc(-c2c(-c3ccc(F)cc3)n[nH]c2C2CCNCC2)n1 [Example 2035] | > 1000 nM

Shift focus to the following entry.
// IC50 lookup, molecule = CC(C)NC(=O)c1csc(-c2oc(CNCc3ccc(C(F)(F)F)cc3)nc2-c2ccc(F)cc2)n1 [Example 1166] , result: > 1000 nM

---

Recorded measurements of pIC50, one per entry
target: active p38 alpha enzyme (Upstate Biotechnology) (Homo sapiens); construct: purchased Upstate Biotechnology; test: p38α biochemical assay (ATP turnover, luminescent detection, Cambrex PKlight); conditions: p38α kinase; Table 1 Biological Activity
pIC50: −log10 of the molar value.

pIC50 reading for CC(C)NC(=O)c1csc(-c2c(-c3ccc(F)cc3)noc2CN2CCCC2CO)n1 (stereo not drawn) : ≥ 6.00

Form field pIC50, entry CCCCN(C)Cc1onc(-c2ccc(F)cc2)c1-c1nc(C(=O)NC(C)C)cs1 : < 6.00

---

target: active p38 alpha enzyme (Upstate Biotechnology) (Homo sapiens, UniProt Q16539); construct: purchased Upstate Biotechnology; experiment: p38α biochemical assay (ATP turnover, luminescent detection, Cambrex PKlight); settings: p38α kinase; Table 1 Biological Activity
pIC50: −log10 of the molar value.
Listing of recorded pIC50 by entry.

smiles | pIC50
Cc1ccccc1C(=O)N1CCC(c2[nH]nc(-c3ccc(F)cc3)c2-c2nc(C(=O)NC(C)C)cs2)CC1 | ≥ 6.00

Per the record, CC(C)NC(=O)c1csc(-c2c(-c3ccc(F)cc3)n[nH]c2C2CCN(C(=O)c3ccc(F)c(F)c3)CC2)n1 has pIC50 of < 6.00

Please fill in: pIC50 reported for CC(C)NC(=O)c1csc(-c2c(-c3ccc(F)cc3)noc2CNCCCN2CCOCC2)n1 = < 6.00

response.value for Cc1cccc(C(=O)N2CCC(c3[nH]nc(-c4ccc(F)cc4)c3-c3nc(C(=O)NC(C)C)cs3)CC2)c1O (field: pIC50) = < 6.00
